Origin of the recorded values: patent US20140099354A1

Tested on: HeLa, HUVEC and L929 fibroblast
Assay: Volumetric measurement of cells (Coulter counter)
Type: cell-based
Details: time-dependent increase after incubation
# key: entry, value: cell volume (increase in size to)

# Compound, Unit string, cell volume (increase in size to)
data = [
    ("CCCCCCCC/C=C\\CCCCCCCC(=O)O[C@H](COC(=O)CCCCCCCCCCCCCCCCC)COP(=O)([O-])OCC[N+](C)(C)C [SOPC, 1-Stearoyl-2-oleoyl-sn-glycero-3-PC, reference compound]", "%", 150),
    ("CCCCC/C=C\\C/C=C\\CCCCCCCC(=O)O", "%", 170),
    ("CCCCCCCC/C=C\\CCCCCCCC(=O)O", "%", 200),
    ("CCCCCCCC/C=C(\\CCCCCCCC(=O)O)[N+](=O)[O-]", "%", 140),
    ("CCCCCCCC/C=C\\CCCCCCCC(=O)OC[C@H](COP(=O)([O-])OCC[N+](C)(C)C)OC(=O)CCCCCCC/C=C\\CCCCCCCC", "%", 180),
    ("CCCCCCCC/C=C\\CCCCCCCC(=O)O[C@H](COC(=O)CCCCCCCCCCCCCCC)COP(=O)([O-])OCC[N+](C)(C)C [POPC, 1-Palmitoyl-2-oleoyl-sn-glycero-3-PC, reference compound]", "%", 160),
    ("CCCCC/C=C\\C/C=C(\\CCCCCCCC(=O)O)[N+](=O)[O-]", "%", 120),
]

----------
Test: Transisomerization of unsaturated fatty acids in coatings on balloon catheters (FTIR)
Format: physicochemical
Details: after heat treatment (60° C., three hours)

# Molecule, proportion of trans-fatty acids [%]
rows = [
    ("CCCCC/C=C\\C/C=C(\\CCCCCCCC(=O)O[C@H](COC(=O)CCCCCCCCCCCCCCCCC)COP(=O)(O)OCCN)[N+](=O)[O-] [Example R]", 28),
    ("CCCCC/C=C\\C/C=C\\CCCCCCCC(=O)O[C@H](COC(=O)CCCCCCCCCCCCCCCCC)COP(=O)(O)OCCN [SLPE, reference compound]", 86),
    ("CCCCCCCC/C=C\\CCCCCCCC(=O)O[C@H](COC(=O)CCCCCCCCCCCCCCC)COP(=O)([O-])OCC[N+](C)(C)C [POPC, 1-Palmitoyl-2-oleoyl-sn-glycero-3-PC, reference compound]", 80),
    ("CCCCCCCC/C=C(\\CCCCCCCC(=O)O[C@H](COC(=O)CCCCCCCCCCCCCCC)COP(=O)([O-])OCC[N+](C)(C)C)[N+](=O)[O-] [Example C]", 25),
]

----------
Tested on: cortical neurons
Experiment: Hypoxia and reperfusion of cortical neurons (viability, LDH)
Details: 10-minutes ischemia
Experimental endpoint: viability of cortical cells measured after 24 hours

# Molecule, Measured result
data = [
    ("CCCCCCCC/C=C(\\CCCCCCCC(=O)O[C@H](COC(=O)CCCCCCCCCCCCCCCCC)COP(=O)([O-])OCC[N+](C)(C)C)[N+](=O)[O-]", "68%"),
    ("CCCCC/C=C\\CC=C(CCCCCCCC(=O)O[C@H](COC(=O)CCCCCCCCCCCCCCC)COP(=O)([O-])OCC[N+](C)(C)C)[N+](=O)[O-]", "70%"),
    ("CCCCCCCC/C=C\\CCCCCCCC(=O)O[C@H](COC(=O)CCCCCCCCCCCCCCCCC)COP(=O)([O-])OCC[N+](C)(C)C [SOPC, 1-Stearoyl-2-oleoyl-sn-glycero-3-PC, reference compound]", "33%"),
    ("CCCCC/C=C\\C/C=C\\CCCCCCCC(=O)O[C@H](COC(=O)CCCCCCCCCCCCCCC)COP(=O)([O-])OCC[N+](C)(C)C [PLPC, 1-Palmitoyl-2-linoleoyl-sn-glycero-3-PC, reference compound]", "30%"),
]
